# Tested on: SK-MEL-5
# assay-text: NCI tumour cell line growth inhibition, 48 h
Active and inactive are the calls of the source. Rule as the data show it: active = GI50 up to about 1.1 µM and inactive = higher.

# compound, GI50
rows = [
    ("C=C(Br)C(C)(Cl)CCC(Br)C(C)(C)Cl (stereo not drawn)", "34.2 µM (inactive)"),
    ("O=C1c2ccccc2C(=O)c2c1c1cc(O)ccc1n2Cc1ccc(Cl)cc1Cl", "17.2 µM (inactive)"),
    ("CC1=NN(c2nc(N)nc(/C(C#N)=C\\C3COc4ccccc4C3=O)n2)C(C)(C)C1 (stereo not drawn)", "18.7 µM (inactive)"),
    ("COc1cccc(C2c3cc4c(cc3OC(NNC(N)=O)C2C)OCO4)c1O (stereo not drawn)", "0.345 µM (active)"),
    ("O=C(/C(=C/c1ccccc1)c1ccccc1)N1c2ccccc2CC1c1c[nH]c2ccccc12 (stereo not drawn)", "21.7 µM (inactive)"),
    ("O=C1C2CCN(CC2)C1(CO)CO", "47.4 µM (inactive)"),
    ("COc1ccc2c(c1)C(=O)CC(C(N)=O)C2 (stereo not drawn)", "> 100 µM (inactive)"),
    ("Cc1cc(C)nc(NS(=O)(=O)c2ccc(Nc3c4ccccc4nc4c(C(=O)NCCN(C)C)ccc(Cl)c34)cc2)n1", "4.38 µM (inactive)"),
    ("C/C(CCn1[nH]c(=O)ccc1=O)=N\\O", "> 100 µM (inactive)"),
    ("O=c1[nH]c(C2CCCCC2)nc2ccc(Cl)cc12", "> 100 µM (inactive)"),
    ("CC(NC1=NCCO1)c1ccco1 (stereo not drawn)", "86.9 µM (inactive)"),
    ("COc1ccc(O)c(/C=N/NC(=S)N2CCCCC2)c1", "2.02 µM (inactive)"),
    ("CN1CCC2(CC1)/C(=N/C1CCCCC1)NC(=S)N2c1ccccc1", "> 100 µM (inactive)"),
    ("O=C(NCCCOC(=O)CCCCCCCCC(=O)OCCCNC(=O)NC(=O)c1c[nH]c(=O)[nH]c1=O)NC(=O)c1c[nH]c(=O)[nH]c1=O", "> 100 µM (inactive)"),
    ("CC(=O)/C(=C\\c1ccc(Cl)c(Cl)c1)C(=O)C(C)CN(C)C (stereo not drawn)", "11.9 µM (inactive)"),
    ("CC(C)NC(=O)N(Nc1ccccc1)C(C)(C)C", "> 100 µM (inactive)"),
    ("CN(C)CCn1c(=O)c2ccc(NCCCN(C)CCCNc3ccc4c(=O)n(CCN(C)C)c(=O)n5c6ccccc6c(=O)c3c45)c3c(=O)c4ccccc4n(c1=O)c23", "< 0.0106 µM (active)"),
    ("O=C(O)CSC(CC1(c2ccc(Cl)cc2)NC(=O)CS1)c1ccc(Cl)cc1 (stereo not drawn)", "> 100 µM (inactive)"),
]

###

Measured GI50 values are reported for all entries that follow.
# Test system: T47D
# assay-text: NCI tumour cell line growth inhibition, 48 h
The source made the active and inactive calls. Rule as the data show it: active = GI50 up to about 1.1 µM and inactive = higher.

# compound, GI50
measured = [
    ("C[C@H]1CC(=O)C[C@@H]2CC[C@@H]3[C@H](CC[C@]4(C)C(OC(=O)c5cccc6c(=O)c7ccccc7[nH]c56)CC[C@@H]34)[C@]21C (some centres undefined)", "32.7 µM (inactive)"),
    ("O=c1cc(-c2ccccc2)nc2[nH]ccn12", "> 10 µM (inactive)"),
    ("O=S(=O)(O)Nc1ccc(-c2nc3ccccc3s2)cc1Cl", "> 100 µM (inactive)"),
    ("O=c1[nH]nc(-c2ccccc2)n1/N=C/c1cccs1", "38.1 µM (inactive)"),
    ("CN(CC(N)=O)C(=O)N(CCCl)N=O", "> 100 µM (inactive)"),
    ("S=C1NCCN1C(=S)Nc1ccccc1", "40.1 µM (inactive)"),
    ("O=C1c2cc(O)c(O)cc2O[C@H](c2ccc(O)c(O)c2)[C@H]1O", "> 100 µM (inactive)"),
    ("O=c1cnn(C2OC(CO)C(O)C(F)C2O)c(=O)[nH]1 (centres undefined)", "> 100 µM (inactive)"),
    ("CC[C@@]1(O)CC(OC2CC(N3CCOCC3)C(O)C(C)O2)c2c(O)c3c(c(O)c2[C@H]1O)C(=O)c1cccc(O)c1C3=O (some centres undefined)", "0.179 µM (active)"),
]

Hey, just so you know, these numbers are from ChEMBL document CHEMBL1201862.
